Origin of the recorded values: ChEMBL document CHEMBL1133531

Molecular target: Carbonic anhydrase 4 (Bos taurus)
Sequence (Q95323 whole entry): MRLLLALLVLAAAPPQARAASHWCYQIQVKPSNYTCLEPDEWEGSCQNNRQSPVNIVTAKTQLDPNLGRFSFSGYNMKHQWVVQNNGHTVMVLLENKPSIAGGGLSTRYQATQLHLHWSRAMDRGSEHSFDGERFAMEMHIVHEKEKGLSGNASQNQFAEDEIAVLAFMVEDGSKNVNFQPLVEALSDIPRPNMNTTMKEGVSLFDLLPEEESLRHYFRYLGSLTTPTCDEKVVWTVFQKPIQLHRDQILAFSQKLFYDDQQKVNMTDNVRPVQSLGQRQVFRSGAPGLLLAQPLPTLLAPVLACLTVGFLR
Quantity name: Ki (nM)

{"Mol smiles": "NS(=O)(=O)c1cccc(NS(=O)(=O)C(F)(F)F)c1", "Assay target": "Carbonic anhydrase 4 (Bos taurus)", "Ki [nM]": 95300}
{"Mol smiles": "NS(=O)(=O)c1ccc(NS(=O)(=O)C(F)(F)C(F)(F)C(F)(F)C(F)(F)F)cc1", "Assay target": "Carbonic anhydrase 4 (Bos taurus)", "Ki [nM]": 480}
{"Mol smiles": "NS(=O)(=O)c1cc(S(N)(=O)=O)c(NS(=O)(=O)c2c(F)c(F)c(F)c(F)c2F)c(Cl)c1Cl", "Assay target": "Carbonic anhydrase 4 (Bos taurus)", "Ki [nM]": 142}
{"Mol smiles": "NS(=O)(=O)c1nc2ccc(OS(=O)(=O)C(F)(F)F)cc2s1", "Assay target": "Carbonic anhydrase 4 (Bos taurus)", "Ki [nM]": 10}
{"Mol smiles": "NS(=O)(=O)c1nnc(NS(=O)(=O)c2ccc(NS(=O)(=O)C(F)(F)C(F)(F)C(F)(F)C(F)(F)F)cc2)s1", "Assay target": "Carbonic anhydrase 4 (Bos taurus)", "Ki [nM]": 17}
{"Mol smiles": "NS(=O)(=O)c1ccc(NC(=O)c2c(F)c(F)c(F)c(F)c2F)c(F)c1", "Assay target": "Carbonic anhydrase 4 (Bos taurus)", "Ki [nM]": 185}
{"Mol smiles": "NS(=O)(=O)c1cccc(NS(=O)(=O)C(F)(F)C(F)(F)C(F)(F)C(F)(F)C(F)(F)C(F)(F)C(F)(F)C(F)(F)F)c1", "Assay target": "Carbonic anhydrase 4 (Bos taurus)", "Ki [nM]": 870}
{"Mol smiles": "NS(=O)(=O)c1cccc(NS(=O)(=O)c2ccc(NS(=O)(=O)C(F)(F)C(F)(F)C(F)(F)C(F)(F)C(F)(F)C(F)(F)C(F)(F)C(F)(F)F)cc2)c1", "Assay target": "Carbonic anhydrase 4 (Bos taurus)", "Ki [nM]": 33}
{"Mol smiles": "NS(=O)(=O)c1ccc(NS(=O)(=O)C(F)(F)C(F)(F)C(F)(F)C(F)(F)C(F)(F)C(F)(F)C(F)(F)C(F)(F)F)c(F)c1", "Assay target": "Carbonic anhydrase 4 (Bos taurus)", "Ki [nM]": 500}
{"Mol smiles": "NS(=O)(=O)c1ccc(CCOS(=O)(=O)C(F)(F)F)cc1", "Assay target": "Carbonic anhydrase 4 (Bos taurus)", "Ki [nM]": 45000}

[1] NS(=O)(=O)c1nnc(NC(=O)CCNS(=O)(=O)C(F)(F)F)s1
[2] NS(=O)(=O)c1ccc(CCOC(=O)C(F)(F)C(F)(F)C(F)(F)C(F)(F)C(F)(F)C(F)(F)C(F)(F)C(F)(F)F)cc1
[3] NS(=O)(=O)c1nc2ccc(OCCOS(=O)(=O)c3c(F)c(F)c(F)c(F)c3F)cc2s1
Lookup: Give the ascending ranking of the items by reported Ki. Field: ranking. Enter the labels in the order requested.
Found: 3, 1, 2
(3: 7 nM, 1: 40 nM, 2: 12000 nM)

[P] NS(=O)(=O)c1cccc(NS(=O)(=O)c2ccc(NS(=O)(=O)C(F)(F)C(F)(F)C(F)(F)C(F)(F)F)cc2)c1
[Q] NS(=O)(=O)c1cc(S(N)(=O)=O)c(NC(=O)c2c(F)c(F)c(F)c(F)c2F)c(Cl)c1Cl
[R] NS(=O)(=O)c1cccc(NC(=O)c2c(F)c(F)c(F)c(F)c2F)c1
Lookup: Give the ascending ranking of the items by reported Ki. Field: ranking. Enter the labels in the order requested.
Found: P, Q, R
(P: 36 nM, Q: 420 nM, R: 650 nM)

[I] NS(=O)(=O)c1nnc(NC(=O)CCNS(=O)(=O)C(F)(F)C(F)(F)C(F)(F)C(F)(F)F)s1
[II] NS(=O)(=O)c1ccc(Nc2ccnc(NS(=O)(=O)C(F)(F)F)n2)cc1
[III] NS(=O)(=O)c1nnc(NS(=O)(=O)c2ccc(NS(=O)(=O)C(F)(F)F)cc2)s1
[IV] NS(=O)(=O)c1ccc(NC(=O)C(F)(F)C(F)(F)C(F)(F)C(F)(F)C(F)(F)C(F)(F)C(F)(F)C(F)(F)F)c(I)c1
[V] NS(=O)(=O)c1ccc(NNS(=O)(=O)C(F)(F)F)cc1
Lookup: Put the entries in order of Ki, starting with the largest number. Field: ranking. Enter the labels in the order requested.
Found: V, IV, II, III, I
(V: 60800 nM, IV: 680 nM, II: 39 nM, III: 25 nM, I: 11 nM)

[1] NS(=O)(=O)c1ccc(NS(=O)(=O)c2ccc(NS(=O)(=O)C(F)(F)C(F)(F)C(F)(F)C(F)(F)C(F)(F)C(F)(F)C(F)(F)C(F)(F)F)cc2)cc1
[2] NS(=O)(=O)c1ccc(NS(=O)(=O)c2c(F)c(F)c(F)c(F)c2F)c(I)c1
Lookup: Lower value of Ki belongs to which: 1 or 2 ? Please indicate the selected item by its label.
Found: 1
(1: 29 nM, 2: 675 nM)
